Provenance of the data: patent US8853234B2

Tested on: a variety of cell types that are representative of different cancers
method notes: Alamar Blue cell viability assay, variety of cell types representative of different cancers (Tables 12-14)
Format: cell-based
measurement context: Homo sapiens, LNCaP, Prostate, Fibroblastoid; read-out: IC50
IC50 for assorted compounds
Give just the number in nM; leave the unit off.

INSERT INTO results (smiles_representation, data_value) VALUES
  ('O=C(NCCNC1CC1)c1c(=O)c2ccc(N3CCOCC3)nc2n2c1sc1ccccc12', 45),
  ('Cc1cnc(CNC(=O)c2c(=O)c3ccc(N4CCN(C)CC4)nc3n3c2sc2ccccc23)cn1', 77);

# ---- query compound ----
# input For Cc1cnc(CNC(=O)c2c(=O)c3ccc(N4CCCN(C)CC4)nc3n3c2sc2ccccc23)cn1 , write its IC50.
# output 29

* * *

Tested on: a variety of cell types that are representative of different cancers
method notes: Alamar Blue cell viability assay, variety of cell types representative of different cancers (Tables 12-14)
Format: cell-based
measurement context: Homo sapiens, MCF7, MCF-7, Breast, Mammary carcinoma; read-out: IC50
measured property: IC50 (nM)
Respond numerically; units are nM and should not be typed.

INSERT INTO results (molecule, data_value) VALUES
  ('Cc1cnc(CNC(=O)c2c(=O)c3ccc(N4CCN(C)CC4)nc3n3c2sc2ccccc23)cn1 [Compound A1]', 348);

# input Specify the recorded IC50 for O=C(NCCNC1CC1)c1c(=O)c2ccc(N3CCOCC3)nc2n2c1sc1ccccc12 [Compound A3] , system: a variety of cell types that are representative of different cancers.
# output 267

* * *

Tested on: a variety of cell types that are representative of different cancers
method notes: Alamar Blue cell viability assay, variety of cell types representative of different cancers (Tables 12-14)
Assay type: cell-based
measurement context: Homo sapiens, SAOS-2, Saos-2, Bone, Epithelial; read-out: IC50
measured property: IC50 (nM)
Please respond with the number in nM and leave the unit unwritten.

Examples from the recorded data:
INSERT INTO results (smiles_representation, unit_descriptor, data_value) VALUES
  ('Cc1cnc(CNC(=O)c2c(=O)c3ccc(N4CCCN(C)CC4)nc3n3c2sc2ccccc23)cn1', 'nM', 124),
  ('Cc1cnc(CNC(=O)c2c(=O)c3ccc(N4CCN(C)CC4)nc3n3c2sc2ccccc23)cn1', 'nM', 264);

# input Enter measured IC50, system a variety of cell types that are representative of different cancers, for the molecule shown: O=C(NCCNC1CC1)c1c(=O)c2ccc(N3CCOCC3)nc2n2c1sc1ccccc12
# output 249

* * *

method notes: Cassette dosing oral pharmacokinetics in ICR mice
Type: in vivo
measurement context: ICR (IcrTac:ICR), mouse; cassette oral dose 25 mg/kg, female ICR mice, plasma, 0-8 h, none in table
Procedure: A cassette dosing procedure was utilized to determine pharmaceutical properties of compounds disclosed herein. In this procedure, compounds are selected for each cassette (i.e., cocktail) on the basis that mass spectrometric signals for each compound will not interfere with one another upon mass spectrometric analysis (e.g., will not overlap). The concentration of each compound in the dosing cassette often is about 20 mg/mL to achieve an oral dose level of 25 mg/kg in ICR mice. […]
// values below are reported AUC(0-t)
Number only, in ng·h/mL; omit the unit.

Sample records with AUC(0-t):
INSERT INTO measurements (compound, data_value) VALUES
  ('O=C(NCCNC1CC1)c1c(=O)c2cc(F)c(N3CCOCC3)nc2n2c1sc1ccccc12', 5150),
  ('O=C(c1c(=O)c2ccc(N3CCOCC3)nc2n2c1sc1ccccc12)N1CCN(c2ccccn2)CC1', 1740),
  ('CN1CCN(NC(=O)c2c(=O)c3cc(F)c(N4CCOCC4)nc3n3c2sc2ccccc23)CC1', 4360);

# input Check the records and state AUC(0-t) for O=C(NCCN1CCCC1)c1c(=O)c2ccc(N3CCOCC3)nc2n2c1sc1ccccc12
# output 2150

# input Name the recorded AUC(0-t) of the item O=C(c1c(=O)c2ccc(N3CCOCC3)nc2n2c1sc1ccccc12)N1CCN(c2ncccn2)CC1 in your answer.
# output 15300

* * *

Test system: a variety of cell types that are representative of different cancers
method notes: Alamar Blue cell viability assay, variety of cell types representative of different cancers (Tables 12-14)
Type: cell-based
measurement context: Homo sapiens, THP-1, THP-1 cells, Table 14; read-out: AB: THP-1 (IC50)
Form field: IC50 (one value per entry).
Give the quantity in nM, number only.

INSERT INTO assay_data (smiles_representation, data_value) VALUES
  ('CN1CCCN(c2nc3c(cc2F)c(=O)c(C(=O)N2CCOCC2)c2sc4ccccc4n23)CC1', 590);

# input Find the measured IC50 of CN1CCCN(c2nc3c(cc2F)c(=O)c(C(=O)NCc2ccncc2)c2sc4ccccc4n23)CC1 and report it.
# output 1060

# input Provide one value: measured IC50 of CN1CCCN(c2nc3c(cc2F)c(=O)c(C(=O)NCc2ccccn2)c2sc4ccccc4n23)CC1
# output 1330

# input Determine its reported IC50: CN1CCCN(c2nc3c(cc2F)c(=O)c(C(=O)NCc2cccnc2)c2sc4ccccc4n23)CC1
# output 356

# input Please report the measured IC50 for CN1CCCN(c2nc3c(cc2F)c(=O)c(C(=O)NN2CCOCC2)c2sc4ccccc4n23)CC1
# output 1320

# input Specify IC50 for CN1CCCN(c2nc3c(cc2F)c(=O)c(C(=O)NCCCO)c2sc4ccccc4n23)CC1 and stop.
# output 571

* * *

Measured IC50 by item
System: a variety of cell types that are representative of different cancers
method notes: Alamar Blue cell viability assay, variety of cell types representative of different cancers (Tables 12-14)
Format: cell-based
measurement context: Homo sapiens, MV4-11, MV-4-11 cells, Table 14; read-out: AB: MV-4-11 (IC50)
Quick note: give the figure in nM, leave out the unit.

# input Quote IC50 reported for CN1CCCN(c2nc3c(cc2F)c(=O)c(C(=O)NN2CCOCC2)c2sc4ccccc4n23)CC1 please.
# output 124

# input For Cc1cnc(CNC(=O)c2c(=O)c3ccc(N4CCCNCC4)nc3n3c2sc2ccccc23)cn1 , write its IC50.
# output 84

# input Consider the compound CN1CCCN(c2nc3c(cc2F)c(=O)c(C(=O)NCc2ccccn2)c2sc4ccccc4n23)CC1 and give its recorded IC50.
# output 43

# input Name the recorded IC50 of the compound listed here: CN1CCCN(c2nc3c(cc2F)c(=O)c(C(=O)NCCCO)c2sc4ccccc4n23)CC1
# output 32

* * *

Tested on: a variety of cell types that are representative of different cancers
method notes: Alamar Blue cell viability assay, variety of cell types representative of different cancers (Tables 12-14)
Type: cell-based
measurement context: Homo sapiens, MIA PaCa-2, MiaPaCa cells, Table 14; read-out: AB: MiaPaCa (IC50)
measured property: IC50 (nM)
Record the value in nM, omitting the unit from your answer.

INSERT INTO results (smiles_representation, measured_property, data_value) VALUES
  ('CN1CCCN(c2nc3c(cc2F)c(=O)c(C(=O)NCc2ccccn2)c2sc4ccccc4n23)CC1', 'IC50', 941),
  ('CN1CCCN(c2nc3c(cc2F)c(=O)c(C(=O)NCc2ccncc2)c2sc4ccccc4n23)CC1', 'IC50', 131),
  ('CN1CCCN(c2nc3c(cc2F)c(=O)c(C(=O)NN2CCOCC2)c2sc4ccccc4n23)CC1', 'IC50', 359);

# input Please give the documented IC50 of CN1CCCN(c2nc3c(cc2F)c(=O)c(C(=O)NCc2cccnc2)c2sc4ccccc4n23)CC1
# output 133

# input Please list IC50 recorded for the molecule CN1CCCN(c2nc3c(cc2F)c(=O)c(C(=O)N2CCOCC2)c2sc4ccccc4n23)CC1
# output 352

# input Provide IC50 value for the following molecule: Cc1cnc(CNC(=O)c2c(=O)c3ccc(N4CCCNCC4)nc3n3c2sc2ccccc23)cn1
# output 637

* * *

Entries and their bioavailability values follow.
method notes: Pharmacokinetic evaluation IV bolus and oral (bioavailability) in ICR mice
Type: in vivo
measurement context: mouse, plasma, IV 5 mg/kg and PO 25 mg/kg, read-out: Bioavailability (% F)
Don't forget the unit after the number, please.

Example results:
INSERT INTO assay_data (compound, data_value) VALUES
  ('O=C(NCCN1CC=CC1)c1c(=O)c2ccc(N3CCOCC3)nc2n2c1sc1ccccc12', '27.5%'),
  ('O=C(NCCNCC1CCCO1)c1c(=O)c2ccc(N3CCOCC3)nc2n2c1sc1ccccc12 (stereo not shown)', '2%'),
  ('O=C(NNC1=NCCN1)c1c(=O)c2cc(F)c(N3CCOCC3)nc2n2c1sc1ccccc12', '0.1%');

Next compound, please.
# input Note bioavailability for the compound shown: O=C(NCCN1CCCC1)c1c(=O)c2ccc(N3CCOCC3)nc2n2c1sc1ccccc12
# output 10.7%
